Attribution: patent US6750228B1

Target: MMP-1 (Homo sapiens, UniProt P03956)
Construct: made in house; host or cells: transfected HT-1080 cells (provided by Dr. Harold Welgus, Washington University)
Sequence (P03956 100-469): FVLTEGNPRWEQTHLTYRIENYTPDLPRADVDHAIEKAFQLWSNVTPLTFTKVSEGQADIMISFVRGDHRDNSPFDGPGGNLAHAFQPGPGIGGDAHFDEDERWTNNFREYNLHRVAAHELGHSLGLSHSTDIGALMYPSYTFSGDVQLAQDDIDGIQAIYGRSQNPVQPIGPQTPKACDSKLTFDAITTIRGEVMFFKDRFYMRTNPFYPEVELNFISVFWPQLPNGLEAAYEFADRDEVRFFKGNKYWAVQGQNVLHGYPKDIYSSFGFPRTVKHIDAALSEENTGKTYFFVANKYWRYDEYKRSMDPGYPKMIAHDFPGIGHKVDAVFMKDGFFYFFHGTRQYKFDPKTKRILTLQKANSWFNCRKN
Experiment: biochemical
Details: read-out: MMP-1 IC50
Counter-ions that a name gives are not always drawn.
value kind: IC50

Solved cases (2 shown):
{"compound": "O=C(c1ccc(F)cc1)C1CCN(c2ccc(S(=O)(=O)C3(C(=O)NO)CCS(=O)(=O)CC3)cc2)CC1", "value kind": "IC50", "result": "> 10 µM"}
{"compound": "O=C(Nc1ccccc1)OC1CCN(c2ccc(S(=O)(=O)C3(C(=O)NO)CCOCC3)cc2)CC1", "value kind": "IC50", "result": "> 10 µM"}

response.value for CC1CC(C)CN(C(=O)C2CCN(c3ccc(S(=O)(=O)C4(C(=O)NO)CCSCC4)cc3)CC2)C1 (centres unmarked) (field: IC50) = > 10 µM

Briefly, IC50 measured for "O=C(C1CCN(c2ccc(S(=O)(=O)C3(C(=O)NO)CCOCC3)cc2)CC1)N1CCN(c2ncc(C(F)(F)F)cc2Cl)CC1" : > 10 µM

Lab note: measured IC50 of "O=C(c1ccc2c(c1)OCCO2)C1CCN(c2ccc(S(=O)(=O)C3(C(=O)NO)CCOCC3)cc2)CC1" was > 10 µM

Entry "O=C(NO)C1(S(=O)(=O)c2ccc(N3CCC(n4c(=O)[nH]c5ccccc54)CC3)cc2)CCOCC1" — recorded IC50 = > 10 µM

get_value(item= "O=C(C1CCN(c2ccc(S(=O)(=O)C3(C(=O)NO)CCOCC3)cc2)CC1)N1CCN(c2ccc(F)cc2)CC1" , readout=IC50) returns > 10 µM

// IC50 lookup, compound = "O=C(C1CCN(c2ccc(S(=O)(=O)C3(C(=O)NO)CCOCC3)cc2)CC1)N1CCN(c2nccc(C(F)(F)F)n2)CC1" , result: > 10 µM

Notebook: "O=C(C1CCN(c2ccc(S(=O)(=O)C3(C(=O)NO)CCOCC3)cc2)CC1)N1CCN(c2ccc(C(F)(F)F)cc2[N+](=O)[O-])CC1" , IC50 read as > 10 µM

Entry under test: "O=C(C1CCN(c2ccc(S(=O)(=O)C3(C(=O)NO)CCOCC3)cc2)CC1)N1CCN(c2ncccc2C(F)(F)F)CC1" . Its IC50 was > 10 µM

Per the record, "O=C(c1ccc2ccccc2c1)C1CCN(c2ccc(S(=O)(=O)C3(C(=O)NO)CCOCC3)cc2)CC1" has IC50 of > 10 µM

# IC50 of CC1CC(C)CN(C(=O)C2CCN(c3ccc(S(=O)(=O)C4(C(=O)NO)CCN(C(=O)OCC5c6ccccc6-c6ccccc65)CC4)cc3)CC2)C1 (centres unmarked) = > 10 µM

Quick note, IC50 for "C[C@@H]1CN(C(=O)C2CCN(c3ccc(S(=O)(=O)C4(C(=O)NO)CCOCC4)cc3)CC2)C[C@H](C)N1" landed at > 10 µM

For record COCCN1CCC(C(=O)NO)(S(=O)(=O)c2ccc(N3CCC(C(=O)N4CC(C)CC(C)C4)CC3)cc2)CC1 (centres unmarked) [Example 233, Monohydrochloride] the listed IC50 is > 10 µM

----------
Target: MMP-13 (Homo sapiens, UniProt P45452)
Construct: made in house; host or cells: baculovirus / insect cells
Experiment: biochemical
Conditions: recombinant human MMP-13, MCA peptide substrate 4 μM, pH 7.5, room temperature; read-out: MMP-13 IC50
Catalogue of IC50 values
Reply numerically in nM, unit not repeated.

{"compound": "COc1cc(OC)cc(OC2CCN(c3ccc(S(=O)(=O)C4(C(=O)NO)CCOCC4)cc3)CC2)c1", "value kind": "IC50", "numeric readout": 1.5}
{"compound": "O=C(NO)C1(S(=O)(=O)c2ccc(N3CCC(OCc4ccc(F)cc4F)CC3)cc2)CCOCC1", "value kind": "IC50", "numeric readout": 4.5}
{"compound": "COc1cc(C(=O)C2CCN(c3ccc(S(=O)(=O)C4(C(=O)NO)CCOCC4)cc3)CC2)ccc1Cl", "value kind": "IC50", "numeric readout": 5.5}
{"compound": "O=C(NO)C1(S(=O)(=O)c2ccc(N3CC[C@@H](OCc4ccc(F)cc4)C3)cc2)CCOCC1", "value kind": "IC50", "numeric readout": 13}

The reported IC50 of the compound "O=C(NO)C1(S(=O)(=O)c2ccc(N3CCN(c4ccc(OC(F)(F)F)cc4)CC3)cc2)CCOCC1" was 2

// field: IC50; key: "Cc1cccc(OC2CCN(c3ccc(S(=O)(=O)C4(C(=O)NO)CCOCC4)cc3)CC2)c1" ; value = 8

// IC50 lookup, compound = CC1CC(C)CN(C(=O)C2CCN(c3ccc(S(=O)(=O)C4(C(=O)NO)CCN(C(=O)Cn5ccnc5)CC4)cc3)CC2)C1 (stereo not drawn) , result: 20

Memo: "O=C(NO)C1(S(=O)(=O)c2ccc(Oc3ccc(OC(F)(F)F)cc3)cc2)CCN(S(=O)(=O)C(F)(F)F)CC1" , reported IC50: 2.7

The recorded IC50 for CC1CC(C)CN(C(=O)C2CCN(c3ccc(S(=O)(=O)C4(C(=O)NO)CCN(C(=O)CN5CCCC5)CC4)cc3)CC2)C1 (stereo not drawn) is 40

Lab book: IC50 of "COc1ccc(S(=O)(=O)N2CCN(c3ccc(S(=O)(=O)C4(C(=O)NO)CCOCC4)cc3)CC2)cc1OC" noted as 11.3

Form: compound = "O=C(c1cccc(C(F)(F)F)c1)C1CCN(c2ccc(S(=O)(=O)C3(C(=O)NO)CCOCC3)cc2)CC1" ; IC50 = 34.9

"CCCCOc1ccc(NC(=O)OC2CCN(c3ccc(S(=O)(=O)C4(C(=O)NO)CCOCC4)cc3)CC2)cc1" yielded IC50 of 11.4

Measured IC50, Cc1ccc(C(O)C2CCN(c3ccc(S(=O)(=O)C4(C(=O)NO)CCOCC4)cc3)CC2)cc1C (stereo not drawn) : 40

For reference, reported IC50 for "COc1ccccc1N1CCN(c2ccc(S(=O)(=O)C3(C(=O)NO)CCOCC3)cc2)CC1" stands at 130

Please fill in: IC50 reported for "O=C(c1ccc(Cl)c(Cl)c1)C1CCN(c2ccc(S(=O)(=O)C3(C(=O)NO)CCOCC3)cc2)CC1" = 4.5

----------
Here the recorded IC50 is given for each entry.
Target: MMP-13 (Homo sapiens, UniProt P45452)
Construct: made in house; host or cells: baculovirus / insect cells
Experiment: biochemical
Details: recombinant human MMP-13, MCA peptide substrate 4 μM, pH 7.5, room temperature; read-out: MMP-13 IC50
The answer is to be given in nM; state only the numeric part.

Sample answers from the record:
{"compound": "Cc1ccccc1N1CC2CC1CN2c1ccc(S(=O)(=O)C2(C(=O)NO)CCOCC2)cc1 (centres unmarked)", "unit descriptor": "nM", "numeric readout": 650}
{"compound": "O=C(NO)C1(S(=O)(=O)c2ccc(N3CCC(Oc4ccccc4F)CC3)cc2)CCOCC1", "unit descriptor": "nM", "numeric readout": 5}
{"compound": "O=C(NO)C1(S(=O)(=O)c2ccc(N3CCCN(c4ccc(OC(F)(F)F)cc4)CC3)cc2)CCOCC1", "unit descriptor": "nM", "numeric readout": 114}
{"compound": "C#CCN1CCC(C(N)=O)(S(=O)(=O)c2ccc(Sc3ccccc3)cc2)CC1", "unit descriptor": "nM", "numeric readout": 5500}
{"compound": "C=CCC(=O)C1CCN(c2ccc(S(=O)(=O)C3(C(=O)NO)CCOCC3)cc2)CC1", "unit descriptor": "nM", "numeric readout": 20}
{"compound": "CCCCOC1CCN(c2ccc(S(=O)(=O)C3(C(=O)NO)CCN(C4CC4)CC3)cc2)CC1", "unit descriptor": "nM", "numeric readout": 26.8}
{"compound": "CN(CC1CC1)C(=O)C1CCN(c2ccc(S(=O)(=O)C3(C(=O)NO)CCSCC3)cc2)CC1", "unit descriptor": "nM", "numeric readout": 18}

Switching to the query record.
# IC50 of "C[C@H](OC1CCN(c2ccc(S(=O)(=O)C3(C(=O)NO)CCN(C4CC4)CC3)cc2)CC1)c1ccccc1" = 23.5

----------
Target: MMP-2 (Homo sapiens, UniProt P08253)
Construct: made in house; provided by Dr. Gregory Goldberg, Washington University
Sequence (P08253 110-660): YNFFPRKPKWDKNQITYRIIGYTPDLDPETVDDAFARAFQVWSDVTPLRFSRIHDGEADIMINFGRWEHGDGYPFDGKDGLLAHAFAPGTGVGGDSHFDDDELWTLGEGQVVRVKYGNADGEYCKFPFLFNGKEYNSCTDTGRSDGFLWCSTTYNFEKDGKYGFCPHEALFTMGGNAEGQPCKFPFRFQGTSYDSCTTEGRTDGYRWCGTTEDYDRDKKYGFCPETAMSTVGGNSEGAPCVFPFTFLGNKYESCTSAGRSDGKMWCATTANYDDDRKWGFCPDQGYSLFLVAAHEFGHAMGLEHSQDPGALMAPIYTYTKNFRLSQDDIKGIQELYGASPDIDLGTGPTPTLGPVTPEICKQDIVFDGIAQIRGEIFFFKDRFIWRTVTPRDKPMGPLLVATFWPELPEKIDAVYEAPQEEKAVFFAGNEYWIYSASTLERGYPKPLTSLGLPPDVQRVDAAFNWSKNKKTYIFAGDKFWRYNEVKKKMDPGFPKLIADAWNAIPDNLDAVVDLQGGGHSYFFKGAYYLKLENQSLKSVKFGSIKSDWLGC
Experiment: biochemical
Conditions: recombinant human MMP-2, MCA peptide substrate 4 μM, pH 7.5, room temperature; read-out: MMP-2 IC50
value kind: IC50 (nM)
Entry rule: numbers only, all in nM.

{"compound": "CN(C)c1ccc(C(=O)C2CCN(c3ccc(S(=O)(=O)C4(C(=O)NO)CCOCC4)cc3)CC2)cc1", "IC50 / nM": 4500}

Noted for "O=C(c1ccc(OC(F)(F)F)cc1)N1CCC(C(=O)NO)(S(=O)(=O)c2ccc(Oc3ccc(C(F)(F)F)cc3)cc2)CC1" : its IC50 reads 0.8

Lab note: measured IC50 of "CCCN(CC(=O)N1CCC(C(=O)NO)(S(=O)(=O)c2ccc(Oc3ccc(C(F)(F)F)cc3)cc2)CC1)CC1CC1" was 0.2

response.value for "CC(C)(C)c1ccc(CC2CCN(c3ccc(S(=O)(=O)C4(C(=O)NO)CCOCC4)cc3)CC2)cc1" (field: IC50) = 1900

Record summary for "O=C(c1ncc[nH]1)N1CCC(C(=O)NO)(S(=O)(=O)c2ccc(Oc3ccc(OC(F)(F)F)cc3)cc2)CC1" : reported IC50 = 0.1

Value of IC50 reported for the compound "CC(C)OCc1ccc(COC2CCN(c3ccc(S(=O)(=O)C4(C(=O)NO)CCOCC4)cc3)CC2)cc1" is 140

Entry "O=C(NO)C1(S(=O)(=O)c2ccc(N3CCC(OCc4ccccc4F)CC3)cc2)CCOCC1" , IC50 reported as 78

Documented IC50 of "Cc1ccccc1N1CCN(c2ccc(S(=O)(=O)C3(C(=O)NO)CCOCC3)cc2)CC1" : 88

Value of IC50 reported for the compound "O=C(NO)C1(S(=O)(=O)c2ccc(N3CCC(Oc4ccccc4)CC3)cc2)CCOCC1" is 32.6

Consider "O=C(c1ccc2c(c1)OCCO2)C1CCN(c2ccc(S(=O)(=O)C3(C(=O)NO)CCOCC3)cc2)CC1" . Its measured IC50 is 175
